target: T1, recombinant human IGF-IR (human, UniProt P08069 31-932); assay: competitive ELISA: plate coated with 30 nM IGF-IR, clone bound first, then 10 nM biotinylated IGF-I as the blocked ligand, streptavidin-HRP/TMB, OD450
T1 construct: Bought (R&D Systems); also called insulin-like growth factor-I receptor; IGF-1R
ENDPOINT LABEL: IC50 (read off the curve)

// field: IC50 (read off the curve); key: 339A01 (designed binder, Optimized derivative of 218C04) VSDVPRDLEVVAATPTSLLISWSTALKVQRYYRITYGETGGNSPVQEFTVPKHSHTATISGLKPGVDYTITVYAVTKMRDYRPISINYRTHHHHHH ; value = ~1 nM

// field: IC50 (read off the curve); key: 338A06 (designed binder, Optimized derivative of 218C04; also called clone 338A06; parent clone 338A06) VSDVPRDLEVVAATPTSLLISWSARLKVARYYRITYGETGGNSPVQEFTVPKNVYTATISGLKPGVDYTITVYAVTKMRDYRPISINYRTHHHHHH ; value = ~0.7 nM

// field: IC50 (read off the curve); key: 353H09 (designed binder, Optimized derivative of 218C04) VSDVPRDLEVVAATPTSLLISWSDKLKVQRYYRITYGETGGNSPVQEFTVPKHDRTATISGLKPGVDYTITVYAVTKMRDYRPISINYRTHHHHHH ; value = ~1 nM

// field: IC50 (read off the curve); key: 353F10 (designed binder, Optimized derivative of 218C04) VSDVPRDLEVVAATPTSLLISWPTHYKVARYYRITYGETGGNSPVQEFTVPKHTYTATISGLKPGVDYTITVYAVTTTKGLRHYGPISINYRTHHHHHH ; value = ~1 nM

Source listed as patent US20130310317A1.
